Tested on: tomato seedlings
Test: Response of tomato plants, greenhouse growth (Ex. 30)
Assay type: in vivo
Measurement setup: tomato seedlings; 10th day after application; dose 1 ml/gm/lit
Assay readout: Stem Girth 10th Day (mm)
Give bare numbers, in mm.

Reference set, count: 3
Cc1ccc(C(C)C)cc1O	2.35
CC(C)c1ccc(C=O)cc1	2.08
C=CCc1ccc(OC)cc1	2.10

Below are some compounds; for each one, tell me its Stem Girth 10th Day.
1. CC1CCC(C(C)C)C(O)C1 (centres unmarked)
2. C=CCc1ccc(OC)c(O)c1

// result
1: 2.19; 2: 2.25

###

Test system: tomato seedlings
Test: Response of tomato plants, greenhouse growth (Ex. 30)
Format: in vivo
Measurement setup: tomato seedlings; 5th day after application; dose 1 ml/gm/lit
Assay readout: Stem Girth 5th Day (mm)
Answers are plain numbers, in mm.

Cc1ccc(C(C)C)cc1O	2.05
O=C(/C=C/C=C/c1ccc2c(c1)OCO2)N1CCCCC1	1.80
COc1cc(CNC(=O)CCCC/C=C/C(C)C)ccc1O	1.92
Cc1ccc(C(C)C)c(O)c1	1.90
C=CCc1ccc(OC)c(O)c1	1.49

Kindly review the next compound as well.
Entry C=CCc1ccc(OC)cc1 ; assay system tomato seedlings; Stem Girth 5th Day recorded at 1.50
